MEASURED ON: HGF (hepatocyte growth factor/scatter factor) (UniProt P14210;P14210 P14210:32-494,P14210:495-728)
Sequence (P14210 32-494, chain 1 of 2): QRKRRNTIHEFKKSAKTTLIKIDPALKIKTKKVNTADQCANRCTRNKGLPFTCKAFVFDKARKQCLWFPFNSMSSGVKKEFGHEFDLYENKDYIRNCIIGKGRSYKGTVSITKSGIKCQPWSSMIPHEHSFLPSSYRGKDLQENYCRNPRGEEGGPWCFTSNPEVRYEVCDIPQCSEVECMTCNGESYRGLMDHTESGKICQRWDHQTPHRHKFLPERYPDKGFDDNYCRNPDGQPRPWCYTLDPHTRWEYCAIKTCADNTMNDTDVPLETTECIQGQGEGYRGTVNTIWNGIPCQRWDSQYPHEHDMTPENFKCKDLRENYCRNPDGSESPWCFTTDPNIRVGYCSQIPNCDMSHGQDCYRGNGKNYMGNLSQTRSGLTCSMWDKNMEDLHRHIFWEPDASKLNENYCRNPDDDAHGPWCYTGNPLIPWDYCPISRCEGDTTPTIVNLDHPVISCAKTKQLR
Sequence (P14210 495-728, chain 2 of 2): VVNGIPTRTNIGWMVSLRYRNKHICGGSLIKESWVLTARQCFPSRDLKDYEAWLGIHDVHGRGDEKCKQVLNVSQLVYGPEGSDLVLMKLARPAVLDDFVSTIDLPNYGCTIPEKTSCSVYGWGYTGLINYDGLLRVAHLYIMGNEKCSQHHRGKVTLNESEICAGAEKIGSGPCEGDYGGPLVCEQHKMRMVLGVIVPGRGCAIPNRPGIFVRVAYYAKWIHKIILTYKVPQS
ASSAY SUMMARY: filter; 36mer; PEGylated form inhibits HGF in cells
EXPERIMENTAL CONTEXT: tags: R&D Systems
READOUT LABEL: pKd
Please note pKd is a logarithmic value: minus log10 of concentration in mol/L. Answer with that number alone.

Short answer for GGACGAUGCGGCGAGUGCCUGUUUAUGUCAUCGUCC (ssRNA, 2'-F pyrimidines; NX22354 formulation carries 5'-40K PEG and 3'-dT cap) [NX22354 (36mer of 8-102)] : pKd was 10.00
